# System: MCF7
# test_name: Cytotoxicity against human MCF7 cells assessed as reduction in cell viability incubated for 72 hrs by MTT assay
# Type: functional, cell-based
# protocol_conditions: MCF7, 72 h
measurement_kind: EC50

So for CCNC(=S)N/N=C/c1ccc(-c2ccc(C(=O)O)c(Cl)c2)o1 , the logged EC50 turned out to be > 200 µM

----------
Assign pEC50 to each entry below.
# Tested on: DLD-1
# test_name: Cytotoxicity against human DLD1 cells assessed as reduction in cell viability incubated for 72 hrs by MTT assay
# Type: functional, cell-based
# protocol_conditions: DLD-1, 72 h
Answers are plain numbers, as −log10 of the molar value.

smiles_record	measured_target	pEC50
O=C(N/N=C/c1cc([N+](=O)[O-])ccc1O)c1ccc(O)cc1O	DLD-1	4.74

So for CCNC(=S)N/N=C/c1ccc(-c2ccc(C(=O)O)c(Cl)c2)o1 , the logged pEC50 turned out to be 3.78
